Exercise: state measured median fluorescence intensity, fold over isotype control for each of the binders provided.
target: SARS-CoV spike protein (SARS-CoV, UniProt P59594 14-1190)
One number for each entry, in fold over isotype.

Some solved entries appear below for comparison.
* antibody 320 (antibody, V domains shown) VH: QVQLVQSGAEVKKPGASVKVSCKASGYTFTSYGISWVRQAPGQGLEWMGWISAYNGNTNYAQKLQGRVTMTTDTSTRTAYMELRSLRSDDTAVYYCARVGCYYDSSGYSCAENFQHWGQGTLVTVSS VL: QSVLTQPPSVSGAPGQRVTISCTGSSSNIGAGYDVHWYQQLPGTAPKLLIYGNSNRPSGVPDRFSGSKSGTSASLAITGLQAEDEADYYCQSYDSSLSALFGGGTKLTVL | 989
* antibody 331 (antibody, V domains shown) V domain 1: QITLKESGPTLVKPTETLTLTCSFSGFSLTKTGEAAGWIRQAPGRALEWVTVIFWDDDKRYSPSLQNRISVTKDTSKNQVVLRMTNVARFDTGTYFCWAMGGPGKEYFGQGTLVAVSS V domain 2: QSVLTQPPSVSGAPGQRVTISCTGTSSSIGPYSDVHWYQHVSGKAPRLLIFGNSNRPSGVPDRFSGSKSGTSASLVIAGLQAEDEADYYCQSYDSSLGEIYVFGTGTTVTVL | 1.34

// switching to the query binder
Request: Recorded median fluorescence intensity, fold over isotype control for antibody 367 (antibody, V domains shown) VH: QVQLVQSGAEVKKPGASVKVSCKASGYTFTGYYIHWVRQAPGQGLEWMGWINPNSGGTIYAQKFQGRVTMTRDTSISTAYMELSRLTSDDTAVYSCAREPYYDILTGYYAPRRYFDYWGQGTLVTVSS VL: QSALTQPASVSGSPGQSITISCTGTSSDVGSYNYVSWYLQHPGKAPKLMIYDVSNRPSGVSNRFSGSKSGNTASLTISGLQAEDEADFYCSSYTSRSTYVFGTGTKVTVL , please?
Response: 1.08
